molecular target: Gal3S6S(b1-4)GlcNAc; assay: glycan array binding signal (z-score within array); higher = stronger binding; conditions: glycan notation: IUPAC condensed, linker removed
This excerpt belongs to a sample that is enriched for the strongest signals.
glycan array binding signal (z-score) for assorted binders

BINDER | READOUT LABEL | READING
Ovorubin (Pomacea canaliculata), J7I2T6 (protein) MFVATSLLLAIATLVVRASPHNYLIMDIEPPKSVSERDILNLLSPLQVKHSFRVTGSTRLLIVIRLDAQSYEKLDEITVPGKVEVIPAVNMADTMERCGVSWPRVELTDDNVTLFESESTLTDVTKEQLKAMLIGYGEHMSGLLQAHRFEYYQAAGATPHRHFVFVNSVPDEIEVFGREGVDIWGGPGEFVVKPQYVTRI | glycan array binding signal (z-score) | 4.31

In plain terms, Layilin (Mus musculus), Q8C351 (protein) MQPGAALQAMLLAVLLAKPRDSKGRLLSASDLDPRGGQLVCRGGTRRPCYKVIYFHDAFQRLNFEEAKETCMEDGGQLVSIETEDEQRLIEKFIENLLASDGDFWIGLKRLEEKQSNNTACQDLYAWTDGSTSQFRNWYVDEPSCGSEVCVVMYHQPSAPPGIGGSYMFQWNDDRCNMKNNFICKYHDDKPSTTPSIWPGGEATEPATPLLPEETQKEDTKETFKERREAALNLAYILIPSIPLFLLLVVTSAVCWVWICRRKREQTDPSTKEQHTIWPTPRQENSPNLDVYNVIRKQSEADLAEPRPDLKNISFRVCSGEAMPDDMSCDYENIAVNPSESGFVTLASMESGFVTNDIYEFSPDRMGRSKESGWVENEIYY has a documented glycan array binding signal (z-score) of -0.561

In plain terms, EULS2 M4 (Oryza sativa) (protein) MVYCRANPNYAMTARNGAVVLAPANPKDEYQHWIKDMRWSTSIKDEEGYPAFALVNKATGQAIKHSLGQSHPVRLVPYNPEVMDESVLWTESRDVGNGFRCIRMVNNIYLNFDAFHGDKYHGGVRDGTDIVLWKWCEGDSLRWKIQPYYILEQKLISEEDLNSAVDHHHHHH has a documented glycan array binding signal (z-score) of -0.485

In plain terms, CLECb-Precomplexed (Mus musculus), P43025 (protein) MAKNGLVLCILVVSLLLDQTDGYPSRMKARKHSKRRVKAKDDDLKSQVEKLWREVNALKEMQALQTVCLRGTKVHKKCYLASEGLKHYHEANEDCISKGGTLVVPRNSDEINALRDYGKRSLPGVNDFWLGINDMVTEGKFLDVHGFAVSFLNWDRAQPSGGKRENCVLFSQSAQGKWSDEACRSSKRYICEFIIPTRTRPLEQKLISEEDLAANDILDYKDDDDKV has a documented glycan array binding signal (z-score) of -0.251

In plain terms, OVGAL11 (Ovis aries), AAF64320 (protein) MDSLPNPYLQSVSLTVCYMVKIKANLLSAFGKNPELQVDFGTGTGQGGNIPFRFWYCDGMVVMNTFTDGSWQKEEKVLTDAFVPGQPFELQFLVLEKEYQVFVKNKPICQFAHRLPLQSVKMLDVRGDIVLTSVDTL has a documented glycan array binding signal (z-score) of -0.175

In plain terms, DCIR1 (Mus musculus), Q9QZ15 (protein) MASEITYAEVKFKNESNSLHTYSESPAAPREKPIRDLRKPGSPSLLLTSLMLLLLLLAITFLVAFIIYFQKYSQLLEEKKAAKNIMHNELNCTKSVSPMEDKVWSCCPKDWRLFGSHCYLVPTVSSSASWNKSEENCSRMGAHLVVIQSQEEQDFITGILDTHAAYFIGLWDTGHRQWQWVDQTPYEESITFWHNGEPSSGNEKCATIIYRWKTGWGWNDISCSLKQKSVCQMKKINL has a documented glycan array binding signal (z-score) of 0.218

In plain terms, Tim-4 (Mus musculus), Q6U7R4 (protein) MSKGLLLLWLVTELWWLYLTPAASEDTIIGFLGQPVTLPCHYLSWSQSRNSMCWGKGSCPNSKCNAELLRTDGTRIISRKSTKYTLLGKVQFGEVSLTISNTNRGDSGVYCCRIEVPGWFNDVKKNVRLELRRATTTKKPTTTTRPTTTPYVTTTTPELLPTTVMTTSVLPTTTPPQTLATTAFSTAVTTCPSTTPGSFSQETTKGSAFTTESETLPASNHSQRSMMTISTDIAVLRPTGSNPGILPSTSQLTTQKTTLTTSESLQKTTKSHQINSRQTILIIACCVGFVLMVLLFLAFLLRGKVTGANCLQRHKRPDNTEDSDSVLNDMSHGRDDEDGIFTL has a documented glycan array binding signal (z-score) of 1.9

In plain terms, Protectin (Homo sapiens), P13987 (protein) MGIQGGSVLFGLLLVLAVFCHSGHSLQCYNCPNPTADCKTAVNCSSDFDACLITKAGLQVYNKCWKFEHCNFNDVTTRLRENELTYYCCKKDLCNFNEQLENGGTSLSEKTVLLLVTPFLAAAWSLHP has a documented glycan array binding signal (z-score) of -0.261

In plain terms, DrGRIFIN (Danio rerio), Q6DGJ1 (protein) MTLRFEASCPDGLCPGWSVILKGETPPEASKFEINFLCDRDDRVAFHFNPRFTESDIICNSYMANRWGQEERCNHFPLGVEEPFQIEIYSDNDHFHVYIDKAKVMQYKHRVEDLKTITKLQVVNDVKISSLEITKKLFY has a documented glycan array binding signal (z-score) of -0.193

In plain terms, SP8524D-bot-399-27-399 (Bacteroides ovatus) (protein) DAKYDTLDTHAYIEEALSSTSQKVTVQATGESFTTLNVHLSNLSSTDNHYKLVTDQSVLDTYNHINGTGYIMLPKDYYTLPETITVKAGQYAADALSIALKAFSQEMMKSGESYALPVKLVLQDGSISPMENTGTFVILAESIIEFSAPMFVGAPSLKANKFTESPETYSQYTIEVRFQVANTADRDRAVFKNGGDDANFILLRFEDPQSDNENYKAHSLVQIVGRNRLYLNPSNSFKPNEWQHLALVCDGSNYRLYINGVDSGVLSIPTGATTFSDVNWFCLGDDSYSRWGNCKILMSEARIWSVVRSASQIQNNMTQVSPKSVGLEAYWRFNEGQGNVFEDATGKGHTLTTSATPTWIDGILSTDKSTEWK has a documented glycan array binding signal (z-score) of 0.506

The origin of these recorded values is the supplement of paper PMC8728848.
